# assay.procedure: Aggregation of polyurea capsules, Method 5.6
# Type: physicochemical
# Parameters: key: ∘: no aggregation of the capsules; +: aggregation of few capsules together only visible under microscopy; ++: aggregates of mm size; +++: important aggregation; ++++: aggregation is such that a cake is obtained
# condition.parameters: polyurea Method 5.6; free aldehyde as phase B, phase A of Table 1
recorded.metric: Encapsulation, No precursor (scale of aggregation)

Known results for compounds:
>>> df
                                   compound  result
0                          O=C/C=C/c1ccccc1       +
1  CC(C=O)c1ccccc1 (stereo not shown) [Hydratropic ald]       +
2      CC(CC=O)CC(C)(C)C (stereo not shown)     +++
3       CC(C)=CCCC(C)C=O (stereo not shown)    ++++
4  CC(C=O)Cc1ccc(C(C)(C)C)cc1 (stereo not shown)       ∘

Problem: State its Encapsulation, No precursor (scale of aggregation) for this compound: CC(CC=O)CCc1ccccc1 (stereo not shown)
Solution: ∘

Problem: State its Encapsulation, No precursor (scale of aggregation) for this compound: CC(CC=O)CCCC(C)(C)O (stereo not shown) [Hydroxycitronellal]
Solution: +++

Problem: State its Encapsulation, No precursor (scale of aggregation) for this compound: C/C(C=O)=C\c1ccccc1
Solution: ∘

Problem: State its Encapsulation, No precursor (scale of aggregation) for this compound: CC(C)c1ccc(C=O)cc1
Solution: ++

Problem: State its Encapsulation, No precursor (scale of aggregation) for this compound: COC1CC2CC1C1CC(C=O)CC21 (stereo not shown)
Solution: ++

Problem: State its Encapsulation, No precursor (scale of aggregation) for this compound: CCCCCC=O
Solution: ++++

Problem: State its Encapsulation, No precursor (scale of aggregation) for this compound: CC1(C)CCCC2=C1CC(C=O)CC2 (stereo not shown)
Solution: ∘

Problem: State its Encapsulation, No precursor (scale of aggregation) for this compound: CC(C)(O)CCCC1=CCC(C=O)CC1 (stereo not shown)
Solution: ∘

Problem: State its Encapsulation, No precursor (scale of aggregation) for this compound: CC1=CC(C)C(C=O)CC1 (stereo not shown)
Solution: +++

Problem: State its Encapsulation, No precursor (scale of aggregation) for this compound: CC1(C)C2CC=C(CCC=O)C1C2 (stereo not shown)
Solution: ++++

Problem: State its Encapsulation, No precursor (scale of aggregation) for this compound: CCCCCC/C(C=O)=C\c1ccccc1
Solution: +

Problem: State its Encapsulation, No precursor (scale of aggregation) for this compound: CCCCCCCCCC(C)C=O (stereo not shown)
Solution: ∘

Problem: State its Encapsulation, No precursor (scale of aggregation) for this compound: CCCCCCCCCCCC=O
Solution: ++++

Problem: State its Encapsulation, No precursor (scale of aggregation) for this compound: CCCCCCCCCC=O
Solution: ++++

====

# assay.procedure: Aggregation of polyamide capsules (Example 2 method)
# Format: physicochemical
# Parameters: key: ∘: no aggregation of the capsules; +: aggregation of few capsules together only visible under microscopy; ++: aggregates of mm size; +++: important aggregation; ++++: aggregation is such that a cake is obtained
# condition.parameters: precursor of the aldehyde (Method 1.1) as phase B at 5% in phase A of Table 1
recorded.metric: Encapsulation, With precursor (scale of aggregation)

Known results for compounds:
In [3]: df
Out[3]:
                                   compound  result
0  CCCCCCCCCC(C)C=O (stereo not drawn) [Aldehyde C12 mna]       ∘
1    CCCCCCCCCCCC=O [Aldehyde C12 laurique]       ∘
2  CC(C=O)Cc1ccc(C(C)(C)C)cc1 (stereo not drawn) [Lilial]       ∘
3  CC1=CC(C)C(C=O)CC1 (stereo not drawn) [Tricyclal]       ∘
4               CCCCCCCCCC=O [Aldehyde C10]       +

Now take the following compound into account.
Problem: State its Encapsulation, With precursor (scale of aggregation) for this compound: COc1ccc(C=O)cc1 [Aubepine para cresol]
Solution: ∘

Data origin: patent US20130089591A1
